Data credit: patent US20180364250A1

Biological target: K11 Ub2
Test: fluorescence competition with 5 nM Atto532-Ub(S20C) and 600 nM tSR
Measurement label: Ki

[[record]]
binder = "tSR (designed binder) MPSSHHHHHHSSGLVPRGSHMTEEEQIAYAMQMSLREAGGGSDLLCKKGCGYYGNPAWQGFCSKCWREEAHKCAAERAAAE"
value_measured = "4.2 µM"

